# Tested on: RPMI-8226
# experimentNotes: NCI tumour cell line growth inhibition, 48 h
Calls of active or inactive are those of the source. Rule as the data show it: active = GI50 up to about 1.1 µM and inactive = higher.
Pick from active, inactive when you respond.

Consider the worked cases shown below.
# compound, experimentalTarget, categoryLabel
rows = [
    ("COc1ccc(C(=O)/C(Br)=C/C(=O)O)cc1", "RPMI-8226", "inactive"),
    ("C/C(=C\\[C@H]1C[C@@H]([C@@H]2CC[C@]34C[C@]23C=C[C@@H]2[C@@]3(C)CC=C5C[C@@H](c6ccccc6)OC[C@]5(C)[C@@H]3C[C@@H](O)[C@]24C)C(=O)O1)CO [DICHAPETALIN A]", "RPMI-8226", "active"),
    ("COc1ccc(NC(=S)N/N=C/c2c(C)n(C)n(-c3ccccc3)c2=O)cc1", "RPMI-8226", "inactive"),
    ("CCCCN[C@H]1C2C3CC4C5CC(C42)C1(C)C53 (stereo partly drawn)", "RPMI-8226", "inactive"),
    ("COc1cc(OC)c2c(c1-c1ccc(C)cc1)CC(C)N(Cc1ccccc1)[C@H]2C (stereo partly drawn)", "RPMI-8226", "inactive"),
]

Dear all, I need the recorded test outcome for COc1ccc(/C=C2/C(=O)N(C(=O)c3ccccc3O)N=C2C)cc1OC , thank you.
inactive

# repeat for CCOC(=O)N1CCN(c2c(N)nc(C)nc2O)CC1
inactive

# repeat for O=C1C=CC(=O)N1n1c(Cc2ccccc2)n[nH]c1=O
inactive

# repeat for O=C(Cc1nc2ccccc2[nH]c1=O)c1c[nH]c2ccccc12
inactive

# repeat for CCOC(=O)C(=O)Nc1c(C)cccc1C(C)C
inactive

# repeat for O=S(=O)(O)c1ccc(/N=N/c2ccc(/N=N/c3c(O)ccc4ccccc34)cc2)cc1
inactive

# repeat for O=C(O)/C=C/C(=O)O [FUMARIC ACID]
inactive

# repeat for COC(=O)c1ccc(C(=O)OC)c2nc3cc(C)ccc3nc12
inactive

###

# System: SNB-19
# experimentNotes: NCI tumour cell line growth inhibition, 48 h
Calls of active or inactive are those of the source. Cut-off read from the data, not from the text of the source: active = GI50 up to about 1.1 µM and inactive = higher.
Pick from yes (1) (active), no (0) (inactive) when you respond.

Consider the worked cases shown below.
# compound, categoryLabel
data = [
    ("O=[N+]([O-])c1cc(Cl)cc2cc(Cl)cnc12", "no (0)"),
    ("N#CC(C(=O)CCC(=O)Nc1cccc(Cl)c1)c1ccccc1 (centres undefined)", "no (0)"),
    ("CCC(C)C(N)C(=O)N/N=C\\c1c2c(nc3ccccc13)-c1cc3c(c(=O)n1C2)COC(=O)[C@]3(O)CC (some centres undefined)", "yes (1)"),
    ("COc1cccc(N2C(=O)C3c4[nH]c5ccc(C)cc5c4C4CCC(C)CC4C3C2=O)c1 (centres undefined)", "no (0)"),
    ("CC1(C)OC(COCCOCCCCCO)C(COCCOCCCCCO)O1 (centres undefined)", "no (0)"),
]

Dear all, I need the recorded test outcome for CC1(C)N=C(N)N=C(N)N1c1ccc(OCCCOc2ccccc2)c(Cl)c1 , thank you.
yes (1)

# repeat for CC1=NN(C(=O)CC(=O)Nc2ccccc2C)C(=O)C1/N=N/c1ccc(C(=O)O)cc1 (centres undefined)
no (0)

# repeat for CCN(CC)CCCNc1ncc(C)c2[nH]c3ccncc3c12
no (0)

# repeat for O=c1[nH]nc(-c2ccccc2)c2[nH]c3c(c12)Cc1ccccc1-3
no (0)

# repeat for O=C(NC/C=C/Br)NC1CCNc2ccccc21 (centres undefined)
no (0)

# repeat for Cc1cc(NC(=O)NC(=O)c2ccccc2N(C)C)ccc1Oc1ncc(Br)cn1
yes (1)

# repeat for CSC1=C(C)C(/C=N/Nc2ccc([N+](=O)[O-])cc2)=C(C)N(c2ccccc2)S1(=O)=O
no (0)

# repeat for CCc1cccc(CC)c1Nc1nc2c(s1)C(=O)c1ccccc1C2=O
no (0)

###

# Tested on: TK-10
# experimentNotes: NCI tumour cell line growth inhibition, 48 h
Calls of active or inactive are those of the source. No stated cut-off is given here; in the data, active = GI50 up to about 1.1 µM and inactive = higher.
readoutName: GI50

Some solved cases for reference:
# structure, observed
rows = [
    ("O=CN/C=C/c1cccc(O)c1", "88.3 µM (inactive)"),
    ("CCCCCCCCCCCC[N+](CCCCCCCCCCCC)=C1SCCS1", "15.2 µM (inactive)"),
]

Field request: GI50 | item: CCOc1ccc(NC(=O)CCC(=O)NN)cc1
> 100 µM (inactive)

###

# Test system: SF-539
# experimentNotes: NCI tumour cell line growth inhibition, 48 h
The source made the active and inactive calls. No stated cut-off is given here; in the data, active = GI50 up to about 1.1 µM and inactive = higher.
readoutName: GI50

Some solved cases for reference:
# compound, observed
records = [
    ("COc1ccc2c(c1)c1cc(OC)ccc1n2CCCCOc1ccc(-c2c3ccccc3c(-c3ccc(OCCCCn4c5ccc(OC)cc5c5cc(OC)ccc54)cc3)c3ccccc23)cc1", "> 100 µM (inactive)"),
    ("COc1ccc([C@@H]2OC(=O)C3C2C(=O)O[C@H]3c2ccc(OC)c(OC)c2)cc1OC (some centres undefined)", "> 100 µM (inactive)"),
    ("CSc1nc(-c2ccccc2)nc(N2CCOCC2)[s+]1", "> 100 µM (inactive)"),
]

Field request: GI50 | item: CC1CC(c2ccccc2)=Nc2ccccc2S1(=O)=O (centres undefined)
18.4 µM (inactive)

# repeat for CC(=O)/C=N/CC(=O)O
> 100 µM (inactive)

# repeat for COc1cc(OC)c2c(c1-c1ccc(C)cc1)CC(C)N(Cc1ccccc1)[C@H]2C (some centres undefined)
32.1 µM (inactive)

# repeat for C=CCOc1ccc2c(C)cc(=O)oc2c1C
41.2 µM (inactive)

# repeat for COCCOC1=CC(=O)c2c(O)ccc(O)c2C1=O
1.73 µM (inactive)

# repeat for Cc1ccccc1NC(=O)Cc1nc2ccccc2s1
18.9 µM (inactive)

# repeat for O=[N+]([O-])c1cc(Cl)cc2cc(Cl)cnc12
> 100 µM (inactive)

# repeat for NCCCNCCSSCc1ccccc1CSSCCNCCCN
> 100 µM (inactive)

# repeat for CCOc1ccc(/N=C/c2cccc3cccnc23)cc1
> 100 µM (inactive)

# repeat for O=C(O)c1ccc(P(=O)(O)c2ccc(C(=O)O)cc2Br)c(Br)c1
> 100 µM (inactive)

# repeat for COC(=O)c1ccc(N/C=C(/C#N)c2ccsc2)cc1
15.9 µM (inactive)

# repeat for N/N=C1\C(=O)N(c2ccc(Cl)c(Cl)c2)C(=O)C1C(=O)Nc1ccc(Cl)c(Cl)c1 (centres undefined)
79.6 µM (inactive)

# repeat for COc1ccc(NC(=S)N/N=C/c2c(C)n(C)n(-c3ccccc3)c2=O)cc1
21.3 µM (inactive)

# repeat for Cc1ccc(Cc2n[nH]c(=O)n2/N=C\CC/C=N\n2c(Cc3ccc(C)cc3)n[nH]c2=O)cc1
3.99 µM (inactive)

# repeat for COC(=O)c1sc2ncc3c(c2c1N)CC(C)CC3 (centres undefined)
> 100 µM (inactive)

# repeat for Brc1ccc(/C=N/C23CC4CC(CC(C4)C2)C3)cc1
> 100 µM (inactive)

# repeat for CC1=NN(c2cccc(Cl)c2)C2(C1)SCC(=O)N2c1nc2ccccc2s1 (centres undefined)
22.8 µM (inactive)

# repeat for Cn1c2ccccc2c2[nH]c3ccccc3c(=O)c21
> 100 µM (inactive)

###

# Tested on: MDA-N
# experimentNotes: NCI tumour cell line growth inhibition, 48 h
Calls of active or inactive are those of the source. No stated cut-off is given here; in the data, active = GI50 up to about 1.1 µM and inactive = higher. *1 amine or outer side, *2 acyl side, *3 side chain or, on linkers, in order; H or OH if unused. Where a SMILES comes first, the peptide text is derived from it. Bridges are numbered along the chain shown (N, C = ends). [ ]: non-standard residue; d: D form. ξ: configuration not given here. X10 = CCC(C)C(N[*:1])C(O)CC(=O)O[C@H](C(=O)C(C)C(=O)[*:2])C(C)C; NMeY = CN[C@@H](Cc1ccc(O)cc1)C(=O)O; ξNMeL = CNC(CC(C)C)C(=O)O; ξT = CC(O)C(N)C(=O)O
Pick from Yes (active), No (inactive) when you respond.

Consider the worked cases shown below.
# compound, categoryLabel
rows = [
    ("COC(=O)c1sc2ncc3c(c2c1N)CC(C)CC3 (stereo not drawn)", "No"),
    ("CCCCCC(O)C(O)CCC[C@H](O)[C@H]1CC[C@H]([C@H]2CC[C@H]([C@H](O)CCCCCCCCCCCCC3=C[C@H](C)OC3=O)O2)O1 (stereo partly drawn)", "No"),
    ("CCC(C)C1NC(=O)C(NC(=O)C(CC(C)C)N(C)C(=O)[C@@H]2CCCN2)C(C)OC(=O)[C@H](Cc2ccc(OC)cc2)N(C)C(=O)[C@@H]2CCCN2C(=O)[C@H](CC(C)C)NC(=O)C(C)C(=O)[C@H](C(C)C)OC(=O)CC1O (stereo partly drawn) (H-P[ξNMeL][ξT][X10]LP[NMeY](Me); ester 3-C)", "Yes"),
    ("Nc1nc(-c2ccccc2)c(-c2ccccc2)c(-c2nc(N)nc(-c3ccccc3)c2-c2ccccc2)n1", "No"),
]

// next entry
Dear all, I need the recorded test outcome for COc1cc(Oc2nc3c(N)cc(C(F)(F)F)cc3nc2-c2ccccc2)cc(OC)c1OC , thank you.
Yes
